- Test Name: Selectivity index measured as IC50(Rat)/IC50(Mycobacterium avium)
Given measured Selectivity index, output Yes if it is greater than or equal to 20 and No if not.

INSERT INTO assay_data (entry_smiles, classification) VALUES
  ('CCOC(=O)CCCOc1ccc(OC)c(Cc2cnc3nc(N)nc(N)c3c2C)c1', 'No'),
  ('CCOC(=O)CCCCOc1ccc(OC)c(Cc2cnc3nc(N)nc(N)c3c2C)c1', 'No'),
  ('COc1ccc(C#CCCCC(=O)O)cc1Cc1cnc2nc(N)nc(N)c2c1C', 'No'),
  ('COc1ccc(C#CCCCC(=O)O)c(Cc2cnc3nc(N)nc(N)c3c2C)c1', 'No'),
  ('CCOC(=O)CCCOc1ccc(OC)cc1Cc1cnc2nc(N)nc(N)c2c1C', 'No'),
  ('COc1ccc(OCCCC(=O)O)c(Cc2cnc3nc(N)nc(N)c3c2C)c1', 'Yes'),
  ('COc1ccc(I)c(Cc2cnc3nc(N)nc(N)c3c2C)c1', 'No'),
  ('COc1ccc(C#CCCC(=O)O)cc1Cc1cnc2nc(N)nc(N)c2c1C', 'No'),
  ('COc1ccc(OCCCCCC(=O)O)cc1Cc1cnc2nc(N)nc(N)c2c1C', 'No'),
  ('COc1ccc(OCCCC(=O)O)cc1Cc1cnc2nc(N)nc(N)c2c1C', 'No'),
  ('COc1cc(Cc2cnc(N)nc2N)cc(C#CCCC(=O)O)c1Br', 'Yes'),
  ('COc1ccc(C#CCCC(=O)O)c(Cc2cnc3nc(N)nc(N)c3c2C)c1', 'Yes'),
  ('COc1ccc(I)cc1Cc1cnc2nc(N)nc(N)c2c1C', 'No'),
  ('COc1ccc(OCCCCC(=O)O)cc1Cc1cnc2nc(N)nc(N)c2c1C', 'No'),
  ('COc1ccc(C#CCCCCC(=O)O)cc1Cc1cnc2nc(N)nc(N)c2c1C', 'No'),
  ('Nc1nc(N)c2nc(CN3c4ccccc4C=Cc4c(C#CCCCC(=O)O)cccc43)cnc2n1', 'Yes'),
  ('CCOC(=O)CCCCCOc1ccc(OC)c(Cc2cnc3nc(N)nc(N)c3c2C)c1', 'No'),
  ('Nc1nc(N)c2nc(CN3c4ccccc4C=Cc4c(C#CCCC(=O)O)cccc43)cnc2n1', 'Yes');

* * *

Listed next: entries and their corresponding pIC50.
- System Under Test: Bifunctional dihydrofolate reductase-thymidylate synthase (Toxoplasma gondii, UniProt Q07422)
- Sequence (Q07422 whole entry): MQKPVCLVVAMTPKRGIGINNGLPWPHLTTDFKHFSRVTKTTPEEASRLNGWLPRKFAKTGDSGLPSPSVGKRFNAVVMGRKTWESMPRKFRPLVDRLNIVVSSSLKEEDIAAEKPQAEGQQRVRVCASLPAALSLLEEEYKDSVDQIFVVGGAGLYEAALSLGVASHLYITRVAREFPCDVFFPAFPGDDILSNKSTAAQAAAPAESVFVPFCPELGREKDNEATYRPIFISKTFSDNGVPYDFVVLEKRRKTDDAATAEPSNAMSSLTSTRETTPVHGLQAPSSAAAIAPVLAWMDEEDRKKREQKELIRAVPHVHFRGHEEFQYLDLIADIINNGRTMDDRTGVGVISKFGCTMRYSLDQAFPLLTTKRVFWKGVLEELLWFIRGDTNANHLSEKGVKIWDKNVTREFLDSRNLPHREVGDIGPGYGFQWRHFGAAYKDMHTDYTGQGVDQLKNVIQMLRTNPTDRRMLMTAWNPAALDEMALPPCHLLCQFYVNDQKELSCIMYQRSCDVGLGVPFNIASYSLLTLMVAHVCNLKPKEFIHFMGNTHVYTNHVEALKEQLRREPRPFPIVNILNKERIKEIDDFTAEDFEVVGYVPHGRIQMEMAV
pIC50: −log10 of the molar value.
Reported Property: pIC50

INSERT INTO assay_data (entry_smiles, numeric_readout) VALUES
  ('COc1ccc(OCCCC(=O)O)cc1Cc1cnc2nc(N)nc(N)c2c1C', 8.72),
  ('COc1ccc(I)c(Cc2cnc3nc(N)nc(N)c3c2C)c1', 8.24),
  ('COc1ccc(OCCCCCC(=O)O)cc1Cc1cnc2nc(N)nc(N)c2c1C', 8.70),
  ('CCOC(=O)CCCCOc1ccc(OC)c(Cc2cnc3nc(N)nc(N)c3c2C)c1', 7.96),
  ('COc1ccc(C#CCCCC(=O)O)c(Cc2cnc3nc(N)nc(N)c3c2C)c1', 8.24),
  ('COc1cc(Cc2cnc(N)nc2N)cc(C#CCCC(=O)O)c1Br', 7.82),
  ('COc1ccc(C#CCCCCC(=O)O)cc1Cc1cnc2nc(N)nc(N)c2c1C', 8.49),
  ('COc1ccc(OCc2ccccc2)c(Cc2cnc3nc(N)nc(N)c3c2C)c1', 7.80),
  ('COc1ccc(C#CCCCC(=O)O)cc1Cc1cnc2nc(N)nc(N)c2c1C', 8.37),
  ('CCOC(=O)CCCOc1ccc(OC)cc1Cc1cnc2nc(N)nc(N)c2c1C', 8.00),
  ('COc1ccc(OCCCCC(=O)O)cc1Cc1cnc2nc(N)nc(N)c2c1C', 8.64),
  ('COc1ccc(C#CCCC(=O)O)cc1Cc1cnc2nc(N)nc(N)c2c1C', 9.34),
  ('Nc1nc(N)c2nc(CN3c4ccccc4C=Cc4c(C#CCCCC(=O)O)cccc43)cnc2n1', 7.68),
  ('COc1ccc(I)cc1Cc1cnc2nc(N)nc(N)c2c1C', 8.39),
  ('Nc1nc(N)c2nc(CN3c4ccccc4C=Cc4c(C#CCCC(=O)O)cccc43)cnc2n1', 7.11),
  ('COc1ccc(C#CCCC(=O)O)c(Cc2cnc3nc(N)nc(N)c3c2C)c1', 8.39),
  ('COc1ccc(OCCCC(=O)O)c(Cc2cnc3nc(N)nc(N)c3c2C)c1', 8.64),
  ('CCOC(=O)CCCCCOc1ccc(OC)c(Cc2cnc3nc(N)nc(N)c3c2C)c1', 7.89),
  ('CCOC(=O)CCCOc1ccc(OC)c(Cc2cnc3nc(N)nc(N)c3c2C)c1', 8.47);

Data credit: ChEMBL document CHEMBL1145152
